Consider the following EGFR inhibition, result in words values measured on EGFR (Homo sapiens).
Sequence (P00533 25-1210): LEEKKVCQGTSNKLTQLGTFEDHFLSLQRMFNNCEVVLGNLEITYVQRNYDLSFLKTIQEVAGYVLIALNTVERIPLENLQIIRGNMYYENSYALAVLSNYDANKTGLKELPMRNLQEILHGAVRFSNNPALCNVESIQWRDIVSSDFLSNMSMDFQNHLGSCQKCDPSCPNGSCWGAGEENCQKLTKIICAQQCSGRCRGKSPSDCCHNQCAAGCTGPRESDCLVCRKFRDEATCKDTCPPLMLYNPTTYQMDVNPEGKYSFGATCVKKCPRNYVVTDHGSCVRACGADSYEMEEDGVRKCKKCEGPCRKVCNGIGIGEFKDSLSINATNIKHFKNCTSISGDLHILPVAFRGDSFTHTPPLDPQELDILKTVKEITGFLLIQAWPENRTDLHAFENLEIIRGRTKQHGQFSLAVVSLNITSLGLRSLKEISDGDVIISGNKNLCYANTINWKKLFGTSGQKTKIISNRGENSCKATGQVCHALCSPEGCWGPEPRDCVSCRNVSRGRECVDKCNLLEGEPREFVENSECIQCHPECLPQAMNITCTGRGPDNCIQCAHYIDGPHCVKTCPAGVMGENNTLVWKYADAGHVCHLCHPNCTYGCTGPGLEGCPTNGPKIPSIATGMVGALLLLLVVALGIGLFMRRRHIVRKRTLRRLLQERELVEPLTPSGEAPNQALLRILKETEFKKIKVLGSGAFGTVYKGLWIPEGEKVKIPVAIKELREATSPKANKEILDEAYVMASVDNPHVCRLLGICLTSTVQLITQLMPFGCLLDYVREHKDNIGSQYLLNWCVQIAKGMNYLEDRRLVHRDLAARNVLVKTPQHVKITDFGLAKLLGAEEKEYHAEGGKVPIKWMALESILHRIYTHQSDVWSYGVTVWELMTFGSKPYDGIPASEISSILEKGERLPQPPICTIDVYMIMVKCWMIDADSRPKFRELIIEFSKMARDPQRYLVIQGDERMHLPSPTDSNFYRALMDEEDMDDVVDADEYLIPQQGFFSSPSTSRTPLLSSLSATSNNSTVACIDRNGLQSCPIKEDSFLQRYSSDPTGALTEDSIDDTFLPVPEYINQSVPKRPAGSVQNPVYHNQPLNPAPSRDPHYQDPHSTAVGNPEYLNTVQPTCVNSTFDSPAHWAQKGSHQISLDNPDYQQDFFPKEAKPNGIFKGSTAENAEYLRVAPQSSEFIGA
ENDPOINT: EGFR inhibition, result in words

{"MOLECULE": "Nc1nc(Nc2cccc(Br)c2)c2ccn(Cc3ccc(Cl)cc3Cl)c2n1 [Compound 14a]", "TARGET OR SYSTEM": "EGFR (Homo sapiens)", "ENDPOINT": "EGFR inhibition, result in words", "VALUE": "inactivity"}
{"MOLECULE": "Nc1nc(Nc2cccc(Br)c2)c2ccn(Cc3ccc4ccccc4c3)c2n1 [Compound 17a]", "TARGET OR SYSTEM": "EGFR (Homo sapiens)", "ENDPOINT": "EGFR inhibition, result in words", "VALUE": "abolished"}
{"MOLECULE": "Nc1nc(Nc2cccc(Br)c2)c2ccn(Cc3ccc(-c4ccccc4)cc3)c2n1 [Compound 18a]", "TARGET OR SYSTEM": "EGFR (Homo sapiens)", "ENDPOINT": "EGFR inhibition, result in words", "VALUE": "abolished"}
{"MOLECULE": "Nc1nc(Nc2cccc(Br)c2)c2ccn(Cc3ccc(Cl)c(Cl)c3)c2n1 [Compound 15a]", "TARGET OR SYSTEM": "EGFR (Homo sapiens)", "ENDPOINT": "EGFR inhibition, result in words", "VALUE": "inactivity"}
{"MOLECULE": "COc1ccc(OC)c(Cn2ccc3c(Nc4cccc(Br)c4)nc(N)nc32)c1 [Compound 13a]", "TARGET OR SYSTEM": "EGFR (Homo sapiens)", "ENDPOINT": "EGFR inhibition, result in words", "VALUE": "2-digit micromolar inhibition"}
{"MOLECULE": "COc1cc(Cn2ccc3c(Nc4cccc(Br)c4)nc(N)nc32)cc(OC)c1OC [Compound 19a]", "TARGET OR SYSTEM": "EGFR (Homo sapiens)", "ENDPOINT": "EGFR inhibition, result in words", "VALUE": "inactivity"}
{"MOLECULE": "Nc1nc(Nc2cccc(Br)c2)c2ccn(Cc3cccc4ccccc34)c2n1 [Compound 16a]", "TARGET OR SYSTEM": "EGFR (Homo sapiens)", "ENDPOINT": "EGFR inhibition, result in words", "VALUE": "abolished"}

###

Target: VEGFR-2 (Homo sapiens, UniProt P35968)
Sequence (P35968 20-1356): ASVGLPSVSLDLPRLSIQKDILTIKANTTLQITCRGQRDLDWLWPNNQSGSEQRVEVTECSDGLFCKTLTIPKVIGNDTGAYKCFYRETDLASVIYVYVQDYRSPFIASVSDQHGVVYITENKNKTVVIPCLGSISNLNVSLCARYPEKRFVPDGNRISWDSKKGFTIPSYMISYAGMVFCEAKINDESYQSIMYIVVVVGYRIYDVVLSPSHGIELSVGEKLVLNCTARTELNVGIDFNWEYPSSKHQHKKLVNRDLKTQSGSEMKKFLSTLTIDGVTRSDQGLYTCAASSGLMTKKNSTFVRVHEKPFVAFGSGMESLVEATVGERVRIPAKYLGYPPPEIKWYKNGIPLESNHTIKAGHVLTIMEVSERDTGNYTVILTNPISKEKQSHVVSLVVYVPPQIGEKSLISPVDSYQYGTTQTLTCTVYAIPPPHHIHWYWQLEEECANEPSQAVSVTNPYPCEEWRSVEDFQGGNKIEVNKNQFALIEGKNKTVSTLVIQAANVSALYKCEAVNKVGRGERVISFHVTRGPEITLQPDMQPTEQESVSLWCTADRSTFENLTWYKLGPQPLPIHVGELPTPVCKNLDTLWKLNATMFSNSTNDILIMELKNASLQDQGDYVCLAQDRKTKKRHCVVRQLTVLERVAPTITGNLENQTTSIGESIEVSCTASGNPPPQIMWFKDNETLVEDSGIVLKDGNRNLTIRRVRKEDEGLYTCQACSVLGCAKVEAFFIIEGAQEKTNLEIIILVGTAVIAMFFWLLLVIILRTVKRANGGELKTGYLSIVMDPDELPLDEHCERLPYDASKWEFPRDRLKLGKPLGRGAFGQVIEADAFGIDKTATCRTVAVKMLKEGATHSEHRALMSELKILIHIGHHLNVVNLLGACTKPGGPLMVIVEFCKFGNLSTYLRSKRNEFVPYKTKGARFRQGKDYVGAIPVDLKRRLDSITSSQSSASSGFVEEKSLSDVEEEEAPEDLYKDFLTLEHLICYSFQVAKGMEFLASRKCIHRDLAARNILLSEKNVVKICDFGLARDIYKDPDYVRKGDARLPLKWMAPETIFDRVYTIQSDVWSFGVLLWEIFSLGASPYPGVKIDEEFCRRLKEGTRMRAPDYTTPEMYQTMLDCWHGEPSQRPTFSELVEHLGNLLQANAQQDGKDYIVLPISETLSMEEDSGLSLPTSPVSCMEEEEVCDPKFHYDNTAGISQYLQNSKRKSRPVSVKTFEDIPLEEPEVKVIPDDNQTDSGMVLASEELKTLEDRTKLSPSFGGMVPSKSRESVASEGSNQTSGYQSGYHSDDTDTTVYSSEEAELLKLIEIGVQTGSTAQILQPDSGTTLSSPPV
Conditions: relative to standard 23
ENDPOINT: VEGFR-2 inhibition, fold less active than the standard 23 (fold)

{"COMPOUND": "Nc1nc(Nc2cccc(Br)c2)c2ccn(Cc3cccc4ccccc34)c2n1 [Compound 16a]", "VALUE": 1.4}
{"COMPOUND": "COc1cc(Cn2ccc3c(Nc4cccc(Br)c4)nc(N)nc32)cc(OC)c1OC [Compound 19a]", "VALUE": 2}
{"COMPOUND": "Nc1nc(Nc2cccc(Br)c2)c2ccn(Cc3ccccc3Cl)c2n1 [Compound 11a]", "VALUE": 1.6}
{"COMPOUND": "Nc1nc(Nc2cccc(Br)c2)c2ccn(Cc3ccc4ccccc4c3)c2n1 [Compound 17a]", "VALUE": 2}
{"COMPOUND": "Nc1nc(Nc2cccc(Br)c2)c2ccn(Cc3ccc(Cl)c(Cl)c3)c2n1 [Compound 15a]", "VALUE": 6}
{"COMPOUND": "Nc1nc(Nc2cccc(Br)c2)c2ccn(Cc3ccccc3)c2n1 [Compound 9a]", "VALUE": 2}

###

Molecular target: UniProt P17948
Sequence (P17948 27-1338): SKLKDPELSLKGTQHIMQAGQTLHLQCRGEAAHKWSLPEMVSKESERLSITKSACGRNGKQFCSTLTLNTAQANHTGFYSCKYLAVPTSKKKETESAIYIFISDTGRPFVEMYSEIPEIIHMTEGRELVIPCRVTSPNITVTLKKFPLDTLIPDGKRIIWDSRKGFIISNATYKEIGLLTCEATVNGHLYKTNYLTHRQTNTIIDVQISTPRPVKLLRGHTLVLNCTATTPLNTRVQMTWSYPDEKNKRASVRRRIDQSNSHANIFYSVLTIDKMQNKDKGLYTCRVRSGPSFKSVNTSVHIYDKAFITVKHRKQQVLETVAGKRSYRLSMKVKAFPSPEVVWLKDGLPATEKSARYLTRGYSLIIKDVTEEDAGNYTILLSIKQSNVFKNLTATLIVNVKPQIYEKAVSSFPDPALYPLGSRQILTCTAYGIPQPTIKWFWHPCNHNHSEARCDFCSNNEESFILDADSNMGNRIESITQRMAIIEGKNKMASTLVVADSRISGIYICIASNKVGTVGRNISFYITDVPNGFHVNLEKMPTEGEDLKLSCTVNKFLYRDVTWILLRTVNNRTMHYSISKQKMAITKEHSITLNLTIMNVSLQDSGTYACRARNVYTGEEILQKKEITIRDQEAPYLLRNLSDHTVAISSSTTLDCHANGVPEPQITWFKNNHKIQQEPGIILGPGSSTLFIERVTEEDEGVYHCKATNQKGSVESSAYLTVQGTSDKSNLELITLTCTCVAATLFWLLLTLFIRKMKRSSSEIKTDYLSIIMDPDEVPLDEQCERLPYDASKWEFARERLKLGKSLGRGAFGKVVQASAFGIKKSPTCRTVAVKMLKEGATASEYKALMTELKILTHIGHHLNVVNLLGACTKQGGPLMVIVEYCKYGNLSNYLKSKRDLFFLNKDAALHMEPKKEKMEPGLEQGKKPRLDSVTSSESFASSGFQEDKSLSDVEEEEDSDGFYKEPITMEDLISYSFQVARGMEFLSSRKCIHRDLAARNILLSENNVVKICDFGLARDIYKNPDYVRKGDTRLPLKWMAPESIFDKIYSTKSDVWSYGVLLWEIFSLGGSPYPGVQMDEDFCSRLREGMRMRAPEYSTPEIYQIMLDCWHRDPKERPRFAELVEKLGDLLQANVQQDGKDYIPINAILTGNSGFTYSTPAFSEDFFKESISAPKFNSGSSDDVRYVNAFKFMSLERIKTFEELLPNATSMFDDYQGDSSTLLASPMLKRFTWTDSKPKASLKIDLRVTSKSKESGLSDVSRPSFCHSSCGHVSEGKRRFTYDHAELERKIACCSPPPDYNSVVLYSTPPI
Conditions: relative to standard 21
ENDPOINT: VEGFR-1 inhibition, fold less active than the standard 21 (fold)

{"COMPOUND": "Nc1nc(Nc2cccc(Br)c2)c2ccn(Cc3ccc(Cl)c(Cl)c3)c2n1 [Compound 15a]", "VALUE": 7}
{"COMPOUND": "Nc1nc(Nc2cccc(Br)c2)c2ccn(Cc3ccccc3)c2n1", "VALUE": 5.6}
{"COMPOUND": "Nc1nc(Nc2cccc(Br)c2)c2ccn(Cc3ccc4ccccc4c3)c2n1 [Compound 17a]", "VALUE": 2.8}
{"COMPOUND": "Nc1nc(Nc2cccc(Br)c2)c2ccn(Cc3cccc4ccccc34)c2n1 [Compound 16a]", "VALUE": 8.4}
{"COMPOUND": "Nc1nc(Nc2cccc(Br)c2)c2ccn(Cc3ccccc3Cl)c2n1 [Compound 11a]", "VALUE": 7}
